Source: paper PMC6451128

# tgt: T1, hPIF1HD K414A (human, UniProt Q9H611 206-620, K414A)
# T1 sequence: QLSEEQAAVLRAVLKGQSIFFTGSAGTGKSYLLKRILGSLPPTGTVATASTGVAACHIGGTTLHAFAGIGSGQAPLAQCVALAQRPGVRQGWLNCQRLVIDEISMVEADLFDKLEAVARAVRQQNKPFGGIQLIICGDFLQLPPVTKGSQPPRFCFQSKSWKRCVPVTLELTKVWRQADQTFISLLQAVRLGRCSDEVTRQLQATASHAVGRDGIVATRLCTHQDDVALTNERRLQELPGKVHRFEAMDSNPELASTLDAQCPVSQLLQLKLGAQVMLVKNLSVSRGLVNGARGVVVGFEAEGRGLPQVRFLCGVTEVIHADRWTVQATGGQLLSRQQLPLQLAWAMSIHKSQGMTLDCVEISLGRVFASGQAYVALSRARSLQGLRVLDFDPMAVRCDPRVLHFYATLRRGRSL
# method-notes: EMSA; no nucleotide; apparent; 20 mM HEPES-NaOH pH 7.5 (Results say pH 7.2), 135 mM NaCl, 5% glycerol, 1 mM DTT, 1 mg/ml BSA, 20 min at 20 C; 0.4 nM T(35); G4 assay: 0.1 nM G4 DNA, 2% PEG 8000 instead of glycerol, 5 uM T(35) competitor
# experimental-setup: protein: recombinant; tags: His tag removed, GSRM left; label: 5' 32P (PNK)
measure-name: Kd (nM)
Express your answer in nM, writing the number without its unit.

Let me know recorded Kd for TTTTTTTTTTTTTTTTTTTTTTTTTTTTTTTTTTT (ssDNA) [poly-T(35)] , thanks.
1.6
